Source: patent US20130266574A1

- TESTED ON: T1, full-length hANGPTL4 (amino acid residues 26-406 of SEQ ID NO:476) with a C-terminal hexa-histidine tag (human, UniProt Q9BY76 26-406)
- T1 sequence: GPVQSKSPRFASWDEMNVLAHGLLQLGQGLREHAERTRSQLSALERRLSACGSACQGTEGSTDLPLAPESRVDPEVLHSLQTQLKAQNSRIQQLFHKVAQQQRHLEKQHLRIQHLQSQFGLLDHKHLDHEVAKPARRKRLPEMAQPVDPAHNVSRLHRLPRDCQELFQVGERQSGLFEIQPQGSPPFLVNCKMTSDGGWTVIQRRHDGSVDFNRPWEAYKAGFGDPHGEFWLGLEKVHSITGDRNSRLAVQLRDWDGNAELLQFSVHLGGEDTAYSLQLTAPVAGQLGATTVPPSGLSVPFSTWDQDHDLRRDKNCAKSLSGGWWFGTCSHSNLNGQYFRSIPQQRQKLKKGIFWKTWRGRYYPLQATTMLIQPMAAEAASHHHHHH
- ASSAY NOTES: cell-based or functional assay
PROPERTY MEASURED: IC50 (nM) in the LPL inhibition assay, constant ANGPTL4 10 nM
Your answer is read as nM, so omit the unit and give the number.

The following binders have reported results that may help.
# BINDER, SCALE UNIT, OBS VALUE
rows = [
    ("H4H268P2 (antibody, human IgG4 S228P, V domains shown, IgG4 version of H1H268P) VH: QVQLQQSGAGLLKPSETLSLTCTVYGGSFSIHHWTWIRHPPGKGLEWIGEINHRGSTNYNPSLKSRVTISIDTSKNQFSLKLSAVTAADTAVYYCARGLRFLDWLSSYFDYWGQGTLVTVSS VL: DIQMTQSPSSLSASVGDRVTITCRASQGISDYLAWYQQKPGKVPNLLIYAASALQSGVPSRFSGSGSGTDFTLTISSLQPEDVATYYCQNYNTAPLTFGGGTKVEIK", "nM", 1.61),
    ("H1H268P (antibody, V domains shown, also called entire H1H268 mAb; Full mAb) VH: QVQLQESGAGLLKPSETLSLTCTVYGGSFSIHHWTWIRHPPGKGLEWIGEINHRGSTNYNPSLKSRVTISIDTSKNQFSLKLSAVTAADTAVYYCARGLRFLDWLSSYFDYWGQGTLVTVSS VL: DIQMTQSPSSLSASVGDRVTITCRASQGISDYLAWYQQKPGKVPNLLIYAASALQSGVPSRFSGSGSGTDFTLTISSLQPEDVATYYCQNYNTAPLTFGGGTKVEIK", "nM", 0.2),
]

Alright, here's another binder for you.
Look up IC50 (nM) in the LPL inhibition assay, constant ANGPTL4 10 nM: H1H284P (antibody, V domains shown, also called entire H1H284 mAb; Full mAb) VH: QVQLVESGGGVVQPGRSLRLSCAASGFTFSSYGMHWVRQAPGKGLEWMAVISFDGGNKNNADSVKGRFTISRDNSKNTLYLQMNSLRAEDTAVYYCAKEGDRSGHPYFYYYGLDVWGQGTTVTVS VL: DIQLTQSPSFLSASVGDRVTITCWASQGISSYLAWYQQKPGKAPKLLIYAASTLQSGVPSRFSGSGSETEFTLTISSLQPEDFATYYCQQLHSYPLTFGGGTKVEIK
0.42
